- measured_on: human IL-1β (human, UniProt P01584 117-269)
- assay_notes: cell-based or functional assay
parameter: IL-1β IC50 (nM)
Note: unit nM is implicit; provide only the numeric part.

Before answering, review these 2 worked examples.
1) ABT2-65/ABT1-141 hu IgG1/K wt (bispecific antibody, V domains shown) VH: EVQLLESGGGLVQPGGSLRLSCAASGFTFEDYQMGWVRQAPGKGLEWVSSISAMGNRTYYADSVKGRFTISRDDSKNTLYLQMNSLRAEDTAVYYCAKNLVRTQSKMWMFDYWGQGTLVTVSS VL: DIQMTQSPSSLSASVGDRVTITCRASQWIQKQLAWYQQKPGKAPKLLIYSSSYLQSGVPRFSGSGSGTDFTLTISSLQPEDFATYYCQQHLRVPFTFGQGTKVEIKR; 100
2) ABT2-108-504/ABT1-122 hu IgG1/K wt (bispecific antibody, V domains shown) VH: EVQLLESGGGLVQPGGSLRLSCAASGFTFADEGMMWVRQAPGKGLEWVSRIGQDGKNTYYADSVKGRFTISRDNSKNTLYLQMNSLRAEDTAVYYCAKYTGRVGVHHLFDYWGQGTLVTVSS VL: DIQMTQSPSSLSASVGDRVTITCRASQPIWTELNWYQQKPGKAPKLLIYGSSSLQSGVPRFSGSGSGTDFTLTISSLQPEDFATYYCQQFAYFPATFGQGTKVEIKR; 15

# evaluate next
Exercise: For the binder ABT2-108-538x/ABT1-221 huIgG1/K wt (second row of that name; light chain column ABT1-222) (bispecific antibody, V domains shown) VH: EVQLLESGGGLVQPGGSLRLSCAASGFTFADEGMMWVRQAPGKGLEWVSRITYSGKNTYYADSVKGRFTISRDNSKNTLYLQMNSLRAEDTAVYYCAKYTGRILGHHLFDYWGQGTLVTVSS VL: DIQMTQSPSSLSASVGDRVTITCRASQPITRNLRWYQQKPGKAPKLLIYHSSVLQSGVPSRFSGSGSGTDFTLTISSLQPEDFATYYCQQGYRWPVTFGQGTKVEIKR , what IL-1β IC50 is on record?
Key: 0.01
